Reference source for all entries: paper PMC5291514

- measured_on: recombinant human LSD1 (Homo sapiens)
- Construct: Human LSD1 catalytic domain, consisting of residues 172–833; GST (N); made in house; host or cells: Escherichia coli BL21-CodonPlus
- test_method_notes: LSD1 enzyme inhibition, HRP-coupled Amplex red assay
- Type: biochemical
- test_context: Table 2
So basically: is IC50 under 80 nM? Then label 1. Not under? Then label 0.

1. CN1CCN(C(=O)CNC2CC2c2ccc(-c3ccc(F)nc3)cc2)CC1 (racemic) [Compound 2, reference compound]; label 1

Ask: Would you kindly verify if IC50 of O=C(CNNC1CC1c1ccccc1)N1CCNCC1 (racemic) is strictly less than 80 nM?
Result: label 0

Ask: IC50 strictly < 80 nM for this compound? NC1CC1c1ccc(OCc2ccccc2)cc1 (racemic)
Result: label 0

Ask: Lab note: IC50 threshold 80 nM. Does this compound come in strictly under it? COc1ccccc1C=NC1CC1c1ccc(Br)cc1 (racemic)
Result: label 0

Ask: Could you please tell me whether IC50 recorded for O=C(CNC1CC1c1ccc(Br)cc1)N1CCNCC1 (racemic) is less than 80 nM?
Result: label 1

Ask: Check if IC50 falls below 80 nM for CN1CCN(C(=O)CNC2CC2c2ccc(Br)cc2)CC1 (racemic) [Compound 3, reference compound] .
Result: label 1

Ask: Lab note: confirm whether the reported IC50 for this compound is below 80 nM, equality not counting. compound: O=C(CNC1CC1c1ccc(Br)cc1)N1CCCCC1 (racemic)
Result: label 0

---

- measured_on: recombinant human LSD1 (Homo sapiens, UniProt O60341)
- Construct: Human LSD1 catalytic domain, consisting of residues 172–833; GST (N); made in house; host or cells: Escherichia coli BL21-CodonPlus
- test_method_notes: LSD1 enzyme inhibition, HRP-coupled Amplex red assay
- Assay type: biochemical
- test_context: Table 1; 30 nM LSD1, 30 min preincubation, 10 μM H3K4Me2 peptide
- From the text: Human LSD1 catalytic domain, consisting of residues 172–833, was expressed in Escherichia coli BL21-CodonPlus strain (Agilent) as a GST fusion protein, by using a pGEX-KG vector. […] Horseradish peroxidase (HRP)-coupled assay was used for the evaluation of the inhibitors, based on the reaction rate (i.e., amount of the product H2O2) being quantitatively determined by adding HRP and a HRP fluorescence substrate Amplex red.[20] […]
measured_endpoint: pIC50
Expect pIC50 as a plain number equal to -log10 of the molar concentration.

1) NC1CC1c1ccc(OCc2ccccc2)cc1 (racemic); 6.04
2) CN1CCN(C(=O)CNC2CC2c2ccc(-c3ccc(F)nc3)cc2)CC1 (racemic) [Compound 2, reference compound]; 7.11
3) Brc1ccc(C2CC2NCc2ccccc2)cc1 (stereo not drawn); 5.30
4) O=C(CNC1CC1c1ccc(Br)cc1)N1CCCCC1 (racemic); 6.21
5) COc1cccc(C=NC2CC2c2ccc(Br)cc2)c1 (racemic); 6.05
6) O=C(CNNC1CC1c1ccccc1)N1CCNCC1 (racemic); 6.17
7) CN1CCN(C(=O)CNCC#Cc2ccccc2)CC1; 4.44
8) O=C(CNC1CC1c1ccccc1)N1CCCCC1 (racemic); 5.89

Ask: # input molecule: O=C(Nc1ccccc1)NC1CC1c1ccc(Br)cc1 (racemic) ; wanted: its pIC50
Result: 5.13

Ask: I would be grateful if you could share the reported pIC50 for O=C(CNC1CC1c1ccc(Br)cc1)N1CCNCC1 (racemic) .
Result: 7.19

Ask: I'd like to know its pIC50. The molecule in question is Brc1ccc(C2CC2N=Cc2ccccc2)cc1 (racemic)
Result: 4.81

Ask: # input molecule: Oc1ccc(CNC2CC2c2ccc(Br)cc2)cc1 (racemic) ; wanted: its pIC50
Result: 4.03

Ask: Query (molecule): CN(C)c1ccc(C=NC2CC2c2ccc(Br)cc2)cc1 (racemic) ; field requested: pIC50
Result: 4.96

Ask: # query: pIC50 of entry Brc1ccc(C2CC2NCC2CCNCC2)cc1 (racemic)
Result: 6.59

Ask: What value of pIC50 has been recorded for this entry: CN(C)c1ccc(CNC2CC2c2ccc(Br)cc2)cc1 (racemic)
Result: 4.15

Ask: Reported pIC50, molecule Brc1ccc(C2CC2N=Cc2ccncc2)cc1 (racemic) : ____
Result: 4.85

Ask: # pIC50 lookup, item CC(=O)NC1CC1c1ccc(Br)cc1 (racemic)
Result: 4.81

Ask: Recorded pIC50 for COc1ccccc1C=NC1CC1c1ccc(Br)cc1 (racemic) , please?
Result: 6.13

Ask: Dear colleague, I am looking for the recorded pIC50 of the following molecule: O=C(CNC1CC1c1ccc(Br)cc1)N1CCCC1 (racemic)
Result: 5.44

Ask: Can you share its pIC50? I mean this molecule: Brc1ccc(C2CC2NNCC2CCNCC2)cc1 (racemic)
Result: 5.77

Ask: pIC50 lookup needed for Brc1ccc(C=NC2CC2c2ccc(Br)cc2)cc1 (racemic) , thanks.
Result: 5.92

Ask: Query (molecule): O=C(CNC1CC1c1ccccc1)N1CCNCC1 (racemic) ; field requested: pIC50
Result: 6.72

Ask: What pIC50 value was documented for this molecule, CN1CCN(C(=O)CNC2CC2c2ccc(Br)cc2)CC1 (racemic) [Compound 3, reference compound] ?
Result: 7.46

---

- measured_on: recombinant human LSD1 (Homo sapiens)
- Construct: Human LSD1 catalytic domain, consisting of residues 172–833; GST (N); made in house; host or cells: Escherichia coli BL21-CodonPlus
- test_method_notes: LSD1 enzyme inhibition, HRP-coupled Amplex red assay
- Format: biochemical
- test_context: Table 1; 30 nM LSD1, 30 min preincubation, 10 μM H3K4Me2 peptide
Below: a set of entries, each annotated with reported pIC50.
Remember the convention: pIC50 equals -log10 of concentration in molar.

Ask: Please report the recorded pIC50 for O=C(NNC1CC1c1ccccc1)N1CCNCC1 (racemic) .
Result: 4.08

Ask: Suppose we examine the compound CN1CCN(C(=O)CNC2CC2c2ccc(-c3ccc(Cl)nc3)cc2)CC1 (racemic) ; what pIC50 value has been reported?
Result: 6.82

Ask: Form field: reported pIC50 of NNC1CC1c1ccccc1 (stereo not drawn) [Compound 31, Trans-phenyl cyclopropyl hydrazine]
Result: 5.24
